FYI, the data here is from patent US20230265151A1.

- assayed system: human GLP-1 receptor (human, UniProt P43220 24-463)
- assay protocol: cell-based or functional assay
*1 amine or outer side, *2 acyl side, *3 side chain or, on linkers, in order; H or OH if unused. Where no end group is shown, it is not given here. Side-chain parts run from the residue outwards. [ ]: non-standard residue; d: D form. The star is where a group is joined. Decanoyl(10-(4-HOOC-PhO)) = O=C(O)c1ccc(OCCCCCCCCCC(=O)*)cc1; αMePhe(2-F) = C[C@](N)(Cc1ccccc1F)C(=O)O; γGlu = O=C(O)[C@H](CCC(=O)[*:2])N[*:1]; αMeY = C[C@](N)(Cc1ccc(O)cc1)C(=O)O; αMeL = CC(C)C[C@](C)(N)C(=O)O; Orn = NCCC[C@H](N)C(=O)O; AEEA = NCCOCCOCC(=O)O; Aib = CC(C)(N)C(=O)O
measured parameter: cAMP Emax (1.0% HSA) (%)
The answer is to be given in %; state only the numeric part.

# input Which cAMP Emax (1.0% HSA) is listed for YXEGTXTSDYXIXLDXKAQXEFIXXLIEGGPSSGAPPPSK (Y-Aib-EGT-αMeF(2F)-TSDY-Aib-I-αMeL-LD-Orn-K((2-[2-(2-Amino-ethoxy)-ethoxy]-acetyl)2-(γ-Glu)-(10-(4-carboxyphenoxy)decanoyl))AQ-Aib-EFI-(D-Glu)-αMeY-LIEGGPSSGAPPPSK((2-[2-(2-Amino-ethoxy)-ethoxy]-acetyl)2-(γ-Glu)-(10-(4-carboxyphenoxy)decanoyl))-NH2) [Example 238] ?
# output 103

# input Next record, please: YXEGTXTSDXXIXLDXKAQXKFIXXLIEGGPSSGAPPPS (Y-Aib-EGT-αMeF(2F)-TSD-4Pal-Aib-I-αMeL-LD-Orn-K((2-[2-(2-Amino-ethoxy)-ethoxy]-acetyl)-(γ-Glu)-CO-(CH2)12-CO2H)AQ-Aib-K((2-[2-(2-Amino-ethoxy)-ethoxy]-acetyl)-(γ-Glu)-CO-(CH2)12-CO2H)FI-(D-Glu)-αMeY-LIEGGPSSGAPPPS-NH2) [Example 336]
# output 103

# input Next record, please: Y[Aib]EGT[αMePhe(2-F)]TSDV[Aib]I[αMeL]LD[Orn]IAQ[Aib]K([AEEA-AEEA-γGlu-Decanoyl(10-(4-HOOC-PhO))])FI[dE][αMeY]LIK([AEEA-AEEA-γGlu-Decanoyl(10-(4-HOOC-PhO))])GGPSSGAPPPS-NH2 [Example 330]
# output 85

# input Next record, please: YXEGTXTSDXXIXLDXIAQXKFIKXLIEGGPSSGAPPPS (Y-Aib-EGT-αMeF(2F)-TSD-4Pal-Aib-I-αMeL-LD-Orn-IAQ-Aib-K((2-[2-(2-Amino-ethoxy)-ethoxy]-acetyl)2-(γ-Glu)-CO-(CH2)12-CO2H)FIK((2-[2-(2-Amino-ethoxy)-ethoxy]-acetyl)2-(γ-Glu)-CO-(CH2)12-CO2H)-αMeY-LIEGGPSSGAPPPS-NH2) [Example 218]
# output 121

# input Next record, please: YXEGTXTSDYXIXLDXIAQXKFIXXLIEGGPSSGAPPPSK (Y-Aib-EGT-aMeF(2F)-TSDY-Aib-I-aMeL-LD-Orn-IAQ-Aib-K((2-[2-(2-Amino-ethoxy)-ethoxy]-acetyl)2-(γ-Glu)-CO-(CH2)12-CO2H)FI-(D-Glu)-αMeY-LIEGGPSSGAPPPSK((2-[2-(2-Amino-ethoxy)-ethoxy]-acetyl)2-(γ-Glu)-CO-(CH2)12-CO2H)-NH2) [Example 235]
# output 152
